Ref: patent US20200131474A1

Tested on: genomic DNA purified from male human peripheral blood mononuclear cells
Experiment: Biochemical method for potential off-target genomic sites cleaved by Cas9 and B2M guides
Conditions: guide concentration of 64 nM

molecule: 6-HEYJA000001: gRNA targeting B2M; targeting domain GGCCGAGAUGUCUCGCUCCG (SEQ ID NO: 113); sgRNA SEQ ID NO: 164 (nucleic acid, listed as RNA, chemistry not given here) guide: GGCCGAGAUGUCUCGCUCCGGUUUUAGAGCUAGAAAUAGCAAGUUAAAAUAAGGCUAGUCCGUUAUCAACUUGAAAAAGUGGCACCGAGUCGGUGCUUUU
off-target Site_Count: 8
//
molecule: CR000455: gRNA targeting B2M; targeting domain UUACCCCACUUAACUAUCUU (SEQ ID NO: 138); sgRNA SEQ ID NO: 175 (nucleic acid, listed as RNA, chemistry not given here) guide: UUACCCCACUUAACUAUCUUGUUUUAGAGCUAGAAAUAGCAAGUUAAAAUAAGGCUAGUCCGUUAUCAACUUGAAAAAGUGGCACCGAGUCGGUGCUUUU
off-target Site_Count: 48
//
molecule: 1-CR004366: gRNA targeting B2M (Dharmacon); targeting domain GAGUAGCGCGAGCACAGCUA (SEQ ID NO: 108); sgRNA SEQ ID NO: 120 (nucleic acid, listed as RNA, chemistry not given here) guide: GAGUAGCGCGAGCACAGCUAGUUUUAGAGCUAGAAAUAGCAAGUUAAAAUAAGGCUAGUCCGUUAUCAACUUGAAAAAGUGGCACCGAGUCGGUGCUUUU
off-target Site_Count: 69
//
molecule: CR000456: gRNA targeting B2M; targeting domain CUUACCCCACUUAACUAUCU (SEQ ID NO: 139); sgRNA SEQ ID NO: 176 (nucleic acid, listed as RNA, chemistry not given here) guide: CUUACCCCACUUAACUAUCUGUUUUAGAGCUAGAAAUAGCAAGUUAAAAUAAGGCUAGUCCGUUAUCAACUUGAAAAAGUGGCACCGAGUCGGUGCUUUU
off-target Site_Count: 66
//
molecule: CR000442: gRNA targeting B2M; targeting domain GGCCACGGAGCGAGACAUCU (SEQ ID NO: 134); sgRNA SEQ ID NO: 171 (nucleic acid, listed as RNA, chemistry not given here) guide: GGCCACGGAGCGAGACAUCUGUUUUAGAGCUAGAAAUAGCAAGUUAAAAUAAGGCUAGUCCGUUAUCAACUUGAAAAAGUGGCACCGAGUCGGUGCUUUU
off-target Site_Count: 29
//
molecule: 8-HEYJA000004: gRNA targeting B2M; targeting domain ACUCACGCUGGAUAGCCUCC (SEQ ID NO: 115 in Table 10, 118 in Table 4); sgRNA SEQ ID NO: 166 (nucleic acid, listed as RNA, chemistry not given here) guide: ACUCACGCUGGAUAGCCUCCGUUUUAGAGCUAGAAAUAGCAAGUUAAAAUAAGGCUAGUCCGUUAUCAACUUGAAAAAGUGGCACCGAGUCGGUGCUUUU
off-target Site_Count: 62
//
molecule: 9-HEYJA000005: gRNA targeting B2M; targeting domain UCACGUCAUCCAGCAGAGAA (SEQ ID NO: 116); sgRNA SEQ ID NO: 167 (nucleic acid, listed as RNA, chemistry not given here) guide: UCACGUCAUCCAGCAGAGAAGUUUUAGAGCUAGAAAUAGCAAGUUAAAAUAAGGCUAGUCCGUUAUCAACUUGAAAAAGUGGCACCGAGUCGGUGCUUUU
off-target Site_Count: 35
